All figures here come from PubChem BioAssay.

# EXPERIMENTAL_DETAILS: reduction of polyQ htt aggregates in cells – imaging, exon1htt(103Q)mCFP cells, high-content imaging, primary screen (AID 483);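 also: compound exposure lasted 3 days before fixation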
# CONDITION_SET: exon1htt(103Q)mCFP cell line, aggregate imaging, at 2 µM; hits give high values
Classification field: Condition met = inhibition of aggregation at or over 20%; Condition not met = inhibition of aggregation under 20%.

Completed entries (count: 5):
{"columns": ["SMILES_NOTATION", "LABEL_CLASS"],
 "data": [
  ["C=C(c1cccc2ccccc12)P(=O)(O)O", "Condition not met"],
  ["CC(=O)OCC(=O)c1ccc2ccn(C(C)=O)c2c1", "Condition not met"],
  ["O=C(OCN1C(=O)c2ccccc2C1=O)c1ccc2c(=O)n3c(nc2c1)CCC3", "Condition met"],
  ["C=CCNc1nc2c(c(=O)n(C)c(=O)n2C)n1CCCCCC", "Condition not met"],
  ["COc1ccc(-c2nnc(SCC#N)o2)cc1", "Condition met"]
]}

Now look at this entry.
Given O=C(Cn1ccc2ccccc2c1=O)NCCC(=O)N1CCN(C(=O)c2ccco2)CC1 , state whether its inhibition of aggregation is at least 20%.
Condition not met

---

# TARGET_DESC: Voltage-gated potassium channel subunit beta-2 (Rattus norvegicus)
# EXPERIMENTAL_DETAILS: enhancers of rat Kvbeta2 NADPH turnover – biochemical, NADPH fluorescence, primary screen (AID 623);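 also: fluorescence intensity change per second fitted from 20 to 320 s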
# CONDITION_SET: Recombinant KvBeta, NADPH fluorescence decrease slope, 10 min; at 10 µM; hits give low values
Task for the reader: assign each of the following compounds its reported NADPH fluorescence slope.
One number for each entry.

Examples with answers:
{"columns": ["COMPOUND", "NADPH fluorescence slope"],
 "data": [
  ["COc1ccc(C(c2sc3nc(C)nn3c2O)N2CCCCC2)cc1 (stereo not drawn)", "-4.6e-05"],
  ["Cc1cccc(NC(=O)c2ccc(S(=O)(=O)N(C)C)cc2)n1", "-2.4e-05"],
  ["CCCc1cc(=O)n2[nH]c(-c3ccc(Br)cc3)cc2n1", "-2.2e-05"],
  ["CC(=O)Nc1ccc(S(=O)(=O)N2CCN(c3cc(C)nc4ccccc34)CC2)cc1", "-7.9e-05"],
  ["O=C(c1ncc[nH]1)c1ccccc1C(=O)N1CCOCC1", -0.000166],
  ["Cc1ccc(NC(=O)COC(=O)c2ccn(C)n2)cc1", "1.1e-05"],
  ["Cn1c(CN2CCOCC2)nnc1SCC(=O)NCCc1ccccc1", "6.8e-06"],
  ["CCOc1ccc(OCC)c(NS(=O)(=O)c2ccc3c(c2)n(C)c(=O)c(=O)n3C)c1", "-4.6e-05"],
  ["COc1cc(NC(=O)Nc2cccc(C(C)=O)c2)cc(OC)c1OC", "-4.1e-05"],
  ["CCCCN(CCCC)C(=O)CN(C)S(=O)(=O)c1ccc2c(c1)n(C)c(=O)c(=O)n2C", "-4.4e-06"]
]}

List reported NADPH fluorescence slope for each of these compounds:
1. CC(=O)Nc1ccc(NC(=O)C(C)Oc2ccccc2F)cc1 (stereo not drawn)
2. O=C(CSc1nc(O)cc(=O)n1-c1ccccc1)N1CCCCC1
3. Cc1n[nH]c(C)c1N1C(=O)c2cccc3cc(Br)cc(c23)C1=O
4. O=S1(=O)CCN2C(=N1)SC1=C2CCN(Cc2ccccc2)C1

1. 1.9e-05
2. -5.1e-05
3. -7.7e-05
4. -1e-05
